Biological target: human CaSR (Homo sapiens (Human))
Sequence (P41180 20-1078): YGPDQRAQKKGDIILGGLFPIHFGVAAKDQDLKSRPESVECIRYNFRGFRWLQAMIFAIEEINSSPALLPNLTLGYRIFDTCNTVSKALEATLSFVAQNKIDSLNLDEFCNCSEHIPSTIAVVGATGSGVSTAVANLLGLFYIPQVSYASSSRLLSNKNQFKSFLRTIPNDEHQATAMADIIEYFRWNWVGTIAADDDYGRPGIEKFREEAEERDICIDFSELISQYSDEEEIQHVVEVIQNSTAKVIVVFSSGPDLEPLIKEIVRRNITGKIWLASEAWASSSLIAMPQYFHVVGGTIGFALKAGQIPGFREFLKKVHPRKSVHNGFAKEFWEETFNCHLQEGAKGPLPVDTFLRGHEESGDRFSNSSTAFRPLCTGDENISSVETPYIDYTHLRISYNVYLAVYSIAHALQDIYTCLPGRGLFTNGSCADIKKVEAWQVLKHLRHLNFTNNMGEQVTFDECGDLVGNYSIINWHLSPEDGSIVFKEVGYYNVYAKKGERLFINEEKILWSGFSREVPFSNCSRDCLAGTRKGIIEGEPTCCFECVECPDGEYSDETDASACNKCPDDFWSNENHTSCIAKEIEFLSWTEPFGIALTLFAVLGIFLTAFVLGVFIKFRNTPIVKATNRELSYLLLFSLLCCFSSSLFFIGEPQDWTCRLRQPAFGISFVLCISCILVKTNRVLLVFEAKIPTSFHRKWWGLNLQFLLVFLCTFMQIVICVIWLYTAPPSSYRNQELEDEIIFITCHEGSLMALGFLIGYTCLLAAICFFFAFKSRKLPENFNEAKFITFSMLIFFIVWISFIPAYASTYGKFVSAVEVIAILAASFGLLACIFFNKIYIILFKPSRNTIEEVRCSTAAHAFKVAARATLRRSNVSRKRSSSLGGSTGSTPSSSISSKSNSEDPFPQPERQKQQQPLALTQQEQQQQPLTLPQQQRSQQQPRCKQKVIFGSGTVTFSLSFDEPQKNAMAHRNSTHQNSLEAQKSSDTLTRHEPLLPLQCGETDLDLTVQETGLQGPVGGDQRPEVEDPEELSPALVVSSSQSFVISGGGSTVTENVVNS
Experiment: Assessment of CaSR agonistic activity (FLIPR Ca2+ fluorescence)
Details: 293E cells transfected with hCaSR/pcDNA3.1, Calcium 4 Assay Kit, 1.5 mM CaCl2 assay buffer
outcome.measure: EC50 (µM)

1. N[C@@H](CCC(=O)Nc1cc(Cl)cc(S(=O)(=O)O)c1O)C(=O)N1CCOCC1
2. Cc1c(Cl)cc(S(=O)(=O)O)cc1NC(=O)NC[C@H](N)C(=O)O
// returns 1 or 2 , whichever has the lower EC50 Let me know the label of the one you choose.
2
